# target_system: T1, Human ROR1-ECD-his (Acro Biosystems RO1-H522y) (human, UniProt Q01973 30-406)
# T1 construct: extracellular domain; bought protein; also called hROR1-ECD-his; hu-ROR1-ECD-his
# T1 sequence (Q01973 30-406): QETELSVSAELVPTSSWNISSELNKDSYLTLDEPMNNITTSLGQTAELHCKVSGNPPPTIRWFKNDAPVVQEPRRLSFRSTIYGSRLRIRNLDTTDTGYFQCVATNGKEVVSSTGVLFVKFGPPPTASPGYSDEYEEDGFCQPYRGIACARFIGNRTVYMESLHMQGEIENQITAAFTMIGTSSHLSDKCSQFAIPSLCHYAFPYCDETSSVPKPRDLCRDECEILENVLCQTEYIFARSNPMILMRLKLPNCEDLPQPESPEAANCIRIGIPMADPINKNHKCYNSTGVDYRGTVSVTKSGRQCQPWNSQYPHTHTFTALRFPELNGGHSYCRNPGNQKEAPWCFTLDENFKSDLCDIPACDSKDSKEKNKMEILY
# procedure_details: BLI, antibody on AHC sensor, ROR1-His 5-80 nM in solution
# Description: The captured biosensors were then dipped in wells containing 2-fold serial dilutions of antigen proteins to detect association signals, followed by dissociation steps in wells containing 1× kinetic buffer. […] The sensorgrams were recorded and the reference signals were subtracted before curve fitting using ForteBio Data Analysis 11.0 software. Association rates (kₒₙ) and dissociation rates (kdis) were calculated using a simple one-to-one Langmuir binding model. […]
value_type: kon (M⁻¹ s⁻¹)
All answers are understood in M⁻¹ s⁻¹, so give the number only.

Consider the binder shown here: PR007424 (antibody, V domains shown, bivalent form (HCAb) variant of PR005340, no light chain) VH: EVQLVESGGGLVKPGGSLRLSCAASGFTFSDYYMSWIRQAPGKGLEWISYIDSSGRPLAYADSVKGRFTISRDNAKNSLYLQMNSLRAEDTAIYYCARDMPSSSSDWVSLQFDYWGQGTLVTVSS What is its recorded kon? 281000
